Tested on: HSV-1
Experiment: Mutation-insensitivity: IC50 against HSV-1 over ten virus passages
Assay type: cell-based
Details: Human alphaherpesvirus 1, HSV-1 passage 9
Property: pIC50
FYI, pIC50 means -log10 of a concentration in mol per litre.

stdin: Report pIC50 for COc1ccc(C[C@@H](C)[C@@H](C)Cc2ccc(OC)c(OC)c2)cc1OC [M4N, tetra-O-methyl-nordihydroguaiaretic acid] tested on HSV-1.
stdout: 5.05

stdin: Okay, and Nc1nc2c(ncn2COCCO)c(=O)[nH]1 [Acyclovir, acyclovir, reference compound] ?
stdout: 3.42

---

Experiment: 14-day toxicity study in rats, toxicokinetics
Type: in vivo
Details: male, rat, plasma, 500 mg/kg, males, Group 10, Day 14
Property: Tmax (min)
// note: answer is a bare numeric in min

stdin: Recorded Tmax of COc1ccc(C[C@@H](C)[C@@H](C)Cc2ccc(OC)c(OC)c2)cc1OC [M4N, tetra-O-methyl-nordihydroguaiaretic acid] , please.
stdout: 30
